Listed below: pre-steady-state target cleavage rate values for each entry.
- Test system: MIWI (PIWIL1) piRISC loaded with L1MC piRNA (30 nt);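 also: 1 nM active piRISC with 0.1 nM target library at 33 °C single turnover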
- protocolDetails: pre-steady-state target cleavage rate (min^-1); higher = faster piRNA-guided slicing of the target
- testContext: guide: L1MC piRNA 5'p-UAACUAAAUACUAUGCAAGCUGUAGGUCCU; auxiliary factor: none (no GTSF1)
The full ranking holds about 8,200 sequences; the median of “pre-steady-state target cleavage rate” is about 0.024, and the highest 2% start at about 1.3. For the sample, the highest values were picked, then their nearest neighbours and some sequences at random.
Reply with the value as a number alone.

Some solved cases for reference:
AGGACCUCAGCUUGCAUAGUAUUUAGUUA	0.0984
UGGUCCUACUGCUUGCAUAGUAUUUAGUUA	0.0687
AGGAGCUACAGGUUGCAUAGUAUUUAGUUA	0.0502

Prompt: # pre-steady-state target cleavage rate lookup, item AGGACCUACUGCUUGGAUAGUAUUUAGUUA
Response: 0.061

Prompt: # pre-steady-state target cleavage rate lookup, item UCCACCUCCAGCUUGCAUAGUAUUUAGUUA
Response: 0.0442

Prompt: # pre-steady-state target cleavage rate lookup, item UCCUGGAUCAGCUUGCAUAGUAUUAUGUAA
Response: 0.00377

Prompt: # pre-steady-state target cleavage rate lookup, item UGGACCUCCAGCUUGCAUAGUAUUUAGUUA
Response: 0.08

Prompt: # pre-steady-state target cleavage rate lookup, item UCCACCUCAGCUUGCAUAGUAUUUAGUUA
Response: 0.0436

Prompt: # pre-steady-state target cleavage rate lookup, item AGGACCUACACCUUGGAUAGUAUUUAGUUA
Response: 0.0497

Prompt: # pre-steady-state target cleavage rate lookup, item UGGACCUAAGCUUGCAUAGUAUUUAGUUA
Response: 0.0446

Prompt: # pre-steady-state target cleavage rate lookup, item UGGACCUACUGCUUGGAUAGUAUUUAGUUA
Response: 0.0542

Prompt: # pre-steady-state target cleavage rate lookup, item UGGACCUACACCUUGGAUAGUAUUUAGUUA
Response: 0.0418

====

- Test system: MIWI (PIWIL1) piRISC loaded with L1MC piRNA (30 nt);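 also: 1 nM active piRISC with 0.1 nM target library at 33 °C single turnover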
- protocolDetails: pre-steady-state target cleavage rate (min^-1); MIWI and MILI are mouse PIWI proteins and EfPiwi is from a freshwater sponge; tags in brackets are library labels; higher = faster piRNA-guided slicing of the target;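 also: 1 nM active piRISC with 0.1 nM target library at 33 °C single turnover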
- testContext: guide: L1MC piRNA 5'p-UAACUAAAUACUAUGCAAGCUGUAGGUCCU; auxiliary factor: none (no GTSF1)
In all, about 8,200 sequences were measured (“pre-steady-state target cleavage rate”: median about 0.024, highest 2% from about 1.3 on). This excerpt belongs to a sample that is enriched for the highest values.
Listed below: pre-steady-state target cleavage rate values for each entry.
Reply with the value as a number alone.

UCCUGAUACAGCUUGCAUAGUAUUUAGUUA	0.0816
UGGACCUACAGCAUGCAUAGUAUUUAGAAA	0.00651
UGGACCUACAGCUUGCAUAGUAUUUAGUUUA	0.075
UCCACCAACUGCUUGCAUAGUAUUUAGUUA	0.0532
UCGAGGUACAGCUUGCAUAGUAUUUAGUUA	0.0604
UCCUCCUUCUGCUUGCAUAGUAUUUAGUUA	0.0546
UCCUGGAACACCUUGGAUAGUAUUUAGUUA	0.00651
UGGUGGUACAGCUUGCAUAGUAUUUAGUUA	0.0711

Prompt: # pre-steady-state target cleavage rate lookup, item UGGAGGUACAGCUUGCAUAGUAUUUAGUUA
Response: 0.0828

Prompt: # pre-steady-state target cleavage rate lookup, item UCGACGUACAGCUUCCAUAGUAUUUAGUUA
Response: 0.00418

Prompt: # pre-steady-state target cleavage rate lookup, item UGGACCUACAGCUUGCAUAGUAUUUAGUUU [g2:g29:cont:t1U]
Response: 0.0974

Prompt: # pre-steady-state target cleavage rate lookup, item AGGAGGUACAGCUUGCAUAGUAUUUAGUAA
Response: 0.0437

Prompt: # pre-steady-state target cleavage rate lookup, item UCCACCUACUGCUUGCAUACUAUUUAGUUA
Response: 0.0231

Prompt: # pre-steady-state target cleavage rate lookup, item UGGACCUACAGCUUGCAUAGUAUUUAGCUUA
Response: 0.0288

Prompt: # pre-steady-state target cleavage rate lookup, item UGGACCAACAGCUUGCAUAGUAUUUACUUA
Response: 0.0367

Prompt: # pre-steady-state target cleavage rate lookup, item UCCUCCUACAGCUUGCAUAGUAAUUAGAUA
Response: 0.00556

Prompt: # pre-steady-state target cleavage rate lookup, item AGGACCAACAGCUUGCAUUGUAUUUAGUUA
Response: 0.0356

Prompt: # pre-steady-state target cleavage rate lookup, item AGGACGUACAGCUUGCAUAGUAUUUAGAAA
Response: 0.0172

Prompt: # pre-steady-state target cleavage rate lookup, item UCCUGCUACAGCUUGCUUAGUAUUAAGUUA
Response: 0.00887

Prompt: # pre-steady-state target cleavage rate lookup, item UCCUCCUACAGCUUGGUUAGUAUUUAGUAA
Response: 0.00502

Prompt: # pre-steady-state target cleavage rate lookup, item UCCUCCUACCAGCUUGCAUAGUAUUUAGUUA
Response: 0.0479

Prompt: # pre-steady-state target cleavage rate lookup, item UCGACCUACAGCUUGCAUAGUAUUGAGUUA
Response: 0.0477
